Items are presented alongside their recorded log10 of IC50.
target: Cathepsin D (Cat D) (Homo sapiens, UniProt P07339); experiment: In vitro enzymatic Cathepsin D (Cat D) FRET assay; format: biochemical; conditions: read-out: CatD IC50
Sequence (P07339 65-412, species assumed): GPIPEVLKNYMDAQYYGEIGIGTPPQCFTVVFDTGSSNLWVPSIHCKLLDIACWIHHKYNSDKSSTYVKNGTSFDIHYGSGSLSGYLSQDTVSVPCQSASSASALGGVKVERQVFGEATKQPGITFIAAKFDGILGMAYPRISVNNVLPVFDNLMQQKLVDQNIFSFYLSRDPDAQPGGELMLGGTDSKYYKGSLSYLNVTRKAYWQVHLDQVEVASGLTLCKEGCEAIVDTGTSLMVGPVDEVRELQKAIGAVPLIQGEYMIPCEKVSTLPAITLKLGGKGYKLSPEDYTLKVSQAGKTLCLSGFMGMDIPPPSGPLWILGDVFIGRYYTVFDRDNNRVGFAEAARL
Field: value | Transform: log10 | Quantity: IC50 | Unit: µM

# Compound, System tested, log10 of IC50
records = [
    ("COc1cnc(C(=O)Nc2ccc3c(c2)[C@@]2(C)N=C(N)C(C)(C)S(=O)(=O)[C@@H]2C[C@H](C)O3)cn1", "Cathepsin D (Cat D) (Homo sapiens, UniProt P07339)", 2.81),
    ("CC1(C)C(N)=N[C@]2(C)c3cc(NC(=O)c4ncc(C(F)(F)F)cc4Cl)ccc3OCC[C@H]2S1(=O)=O", "Cathepsin D (Cat D) (Homo sapiens, UniProt P07339)", 3.55),
    ("COc1cnc(C(=O)Nc2ccc3c(c2)[C@@]2(C)N=C(N)C(C)(C)S(=O)(=O)[C@]2(F)CCO3)cn1", "Cathepsin D (Cat D) (Homo sapiens, UniProt P07339)", 3.47),
    ("CC#C[C@H](C)Oc1cnc2c(Nc3ccc4c(c3)[C@@]3(C)N=C(N)C(C)(C)S(=O)(=O)[C@@H]3CCO4)ncc(F)c2c1 (single isomer, unassigned)", "Cathepsin D (Cat D) (Homo sapiens, UniProt P07339)", 2.37),
    ("Cc1cc(C#N)cnc1C(=O)Nc1ccc2c(c1)[C@@]1(C)N=C(N)C(C)(C)S(=O)(=O)[C@@H]1CCO2", "Cathepsin D (Cat D) (Homo sapiens, UniProt P07339)", 2.64),
]

Prompt: Name the reported log10 of IC50 value associated with the compound "CC1(C)C(N)=N[C@]2(C)c3cc(NC(=O)c4ccc(C#CC5CC5)cn4)ccc3OCC[C@H]2S1(=O)=O"
Completion: 3.00

Prompt: Item under review: "CC1(C)C(N)=N[C@]2(C)c3cc(NC(=O)c4cnc(C(F)(F)F)cn4)ccc3OCC[C@H]2S1(=O)=O" . Reported log10 of IC50?
Completion: 3.20

Prompt: Entry "COc1cnc2c(Nc3ccc4c(c3)[C@@]3(C)N=C(N)C(C)(C)S(=O)(=O)[C@@H]3CCC4)nccc2n1" has what log10 of IC50?
Completion: 2.59

Prompt: Could you share which log10 of IC50 value was measured for "CCc1cc(Cl)cnc1C(=O)Nc1ccc2c(c1)[C@@]1(C)N=C(N)C(C)(C)S(=O)(=O)[C@@H]1CCO2" ?
Completion: 2.35

Prompt: // returns reported log10 of IC50 for input "CC1(C)C(N)=N[C@]2(C)c3cc(NC(=O)c4ncc(Cl)cc4Cl)ccc3CCC[C@H]2S1(=O)=O"
Completion: 2.73

Prompt: State the recorded log10 of IC50 for this entry: "C[C@H]1C[C@@H]2[C@](C)(N=C(N)C(C)(C)S2(=O)=O)c2cc(NC(=O)c3cnc(OCc4ncco4)cn3)ccc2O1"
Completion: 3.02

###

target: Cathepsin D (Cat D) (Homo sapiens); test: In vitro enzymatic Cathepsin D (Cat D) FRET assay; type: biochemical; settings: read-out: CatD IC50
List of IC50 values.
Reply numerically in µM, unit not repeated.

A selection of reference data follows.
# Compound, Quantity measured, Experimental result
rows = [
    ("CC#C[C@H](C)Oc1ccc(C(=O)Nc2ccc3c(c2)[C@@]2(C)N=C(N)C(C)(C)S(=O)(=O)[C@@H]2CCO3)nc1 (single isomer, unassigned)", "IC50", 811),
    ("CC1(C)C(N)=N[C@]2(C)c3cc(NC(=O)c4ccc(Cl)cn4)ccc3OCC[C@H]2S1(=O)=O", "IC50", 279),
]

Here is the next item to consider.
Prompt: Could you share which IC50 value was measured for "Cc1cc(OCC(F)(F)F)cnc1C(=O)Nc1ccc2c(c1)[C@@]1(C)N=C(N)C(C)(C)S(=O)(=O)[C@@H]1CCO2" ?
Completion: 1240
